Target: wild-type HIV-1 protease (Human immunodeficiency virus type 1 group M subtype B, UniProt P04585)
A collection of compounds and their measured IC50
Write your answer as a measured quantity: the number, then the unit.

// below: answered compounds
CCCC1(c2ccccc2)NC(=N)N(Cc2cccc(C(=O)N3Cc4cnc(C#N)nc4C3)c2)C1=O (stereo not shown) :: 16.7 nM
COc1ccc(CN2C(=N)NC(c3ccccc3)(c3ccccc3)C2=O)cc1C(=O)N1Cc2ccccc2C1 :: 29.5 nM
CC(C)CCC1(c2cccc(-c3cccnc3)c2)NC(=N)N(Cc2cccc(C(=O)N3Cc4cccnc4C3)c2)C1=O (stereo not shown) :: 95.1 nM

Please find the next compound below.
Per the record, CC(C)CCC1(c2ccccc2)NC(=N)N(Cc2cccc(C(=O)N3Cc4cccnc4C3)c2)C1=O (stereo not shown) has IC50 of 10.5 nM
